- measuredTarget: T1, 4H234-AA
- T1 chain: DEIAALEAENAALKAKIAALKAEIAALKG
- assay: two-hybrid library CCmax;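 further: natural log of median RNA to DNA barcode read ratio; higher means stronger binding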
- assayContext: mean of both orientations
quantityMeasured: interaction score

# example entries with known answers
binder | interaction score
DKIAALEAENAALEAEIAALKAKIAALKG [4H2190-AA] | 1.66
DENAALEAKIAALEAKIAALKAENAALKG [4H1324-AA] | -2.21
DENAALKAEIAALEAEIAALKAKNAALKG [4H1552-AA] | 1.6
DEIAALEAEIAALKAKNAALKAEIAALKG [4H122-AA] | -1.28

(P) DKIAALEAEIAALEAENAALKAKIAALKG [4H2078-AA]
(Q) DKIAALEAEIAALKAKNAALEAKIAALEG [4H2165-AA]
[Q] Field: entry with larger interaction score (options P / Q ). Lab log: write the label of the selected item as the result.
[A] P
